Kindly state pIC50 for each of the entries shown.
- systemTested: P2X7 (Homo sapiens (Human), UniProt Q99572)
- Sequence (Q99572 whole entry): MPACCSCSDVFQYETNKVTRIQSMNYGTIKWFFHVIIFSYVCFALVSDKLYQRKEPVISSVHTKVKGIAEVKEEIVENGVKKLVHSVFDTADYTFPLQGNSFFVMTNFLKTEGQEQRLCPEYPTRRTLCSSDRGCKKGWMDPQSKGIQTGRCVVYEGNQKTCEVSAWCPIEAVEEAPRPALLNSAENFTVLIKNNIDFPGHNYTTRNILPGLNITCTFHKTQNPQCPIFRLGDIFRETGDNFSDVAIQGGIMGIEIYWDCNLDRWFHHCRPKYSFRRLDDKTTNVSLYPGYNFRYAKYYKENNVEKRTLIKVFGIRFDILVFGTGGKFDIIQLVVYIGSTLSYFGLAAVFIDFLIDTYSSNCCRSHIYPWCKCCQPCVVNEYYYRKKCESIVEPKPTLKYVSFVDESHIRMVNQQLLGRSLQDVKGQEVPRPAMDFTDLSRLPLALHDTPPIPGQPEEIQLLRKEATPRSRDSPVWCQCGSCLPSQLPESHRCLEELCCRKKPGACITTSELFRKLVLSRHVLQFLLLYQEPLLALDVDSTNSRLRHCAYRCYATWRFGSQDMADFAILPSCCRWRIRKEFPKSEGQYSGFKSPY
- assayComment: Ca2+ flux (FLIPR) in 1321N1 cells expressing recombinant human P2X7 channel
- Type: cell-based
- conditionContext: 250 μM BzATP
// pIC50 is dimensionless: -log10 of concentration (M)

# get_value(readout= pIC50, system= P2X7 (Homo sapiens (Human), UniProt Q99572)) for CC1Cc2c(-c3ccn[nH]3)n[nH]c2CN1C(=O)c1cccc(C(F)(F)F)c1Cl (stereo not drawn)
8.09

# get_value(readout= pIC50, system= P2X7 (Homo sapiens (Human), UniProt Q99572)) for Cc1ccnc(-n2nnc3c2CCN(C(=O)c2cccc(C(F)(F)F)c2Cl)C3C)n1 (stereo not drawn)
7.73

# get_value(readout= pIC50, system= P2X7 (Homo sapiens (Human), UniProt Q99572)) for C[C@H]1Cc2c(nnn2-c2ncc(F)cn2)CN1C(=O)c1ccc(Cl)cc1F
7.84

# get_value(readout= pIC50, system= P2X7 (Homo sapiens (Human), UniProt Q99572)) for Cc1nc2c(n1-c1ccccc1)CCN(C(=O)c1cccc(Cl)c1Cl)C2
6.83

# get_value(readout= pIC50, system= P2X7 (Homo sapiens (Human), UniProt Q99572)) for C[C@@H]1c2nnn(-c3cccc(F)n3)c2CCN1C(=O)c1cccc(C(F)(F)F)c1Cl (single isomer, unassigned)
5.57

# get_value(readout= pIC50, system= P2X7 (Homo sapiens (Human), UniProt Q99572)) for O=C(c1cccc(C(F)(F)F)c1Cl)N1C=Cc2c(ncn2-c2cnccn2)C1
6.70

# get_value(readout= pIC50, system= P2X7 (Homo sapiens (Human), UniProt Q99572)) for Cc1c(C(=O)N2CCc3c(nnn3-c3cnccn3)C2C)cccc1C(F)(F)F (stereo not drawn)
8.14

# get_value(readout= pIC50, system= P2X7 (Homo sapiens (Human), UniProt Q99572)) for O=C(c1cccc(Cl)c1Cl)N1CCc2c(-c3ccc(F)cc3)n[nH]c2C1
7.20

# get_value(readout= pIC50, system= P2X7 (Homo sapiens (Human), UniProt Q99572)) for CC1CN(C(=O)c2cccc(C(F)(F)F)c2Cl)Cc2nnn(-c3ccccc3)c21 (stereo not drawn)
6.79

# get_value(readout= pIC50, system= P2X7 (Homo sapiens (Human), UniProt Q99572)) for Cc1c(C(=O)N2CCc3c(nnn3-c3ccccn3)C2)ccc(F)c1F
7.11

# get_value(readout= pIC50, system= P2X7 (Homo sapiens (Human), UniProt Q99572)) for CC1Cc2c(nnn2-c2ccccn2)CN1C(=O)c1ccc(F)c(Cl)c1Cl (stereo not drawn)
8.49

# get_value(readout= pIC50, system= P2X7 (Homo sapiens (Human), UniProt Q99572)) for O=C(c1ccc(Cl)cc1F)N1CCc2c(nnn2-c2ncccn2)C1
6.25

# get_value(readout= pIC50, system= P2X7 (Homo sapiens (Human), UniProt Q99572)) for CC1C=CN=C(n2nnc3c2CCN(C(=O)c2cccc(C(F)(F)F)c2Cl)[C@@H]3C)N1 (single isomer, unassigned)
6.70

# get_value(readout= pIC50, system= P2X7 (Homo sapiens (Human), UniProt Q99572)) for COc1ccc(-n2nnc3c2CCN(C(=O)c2cccc(C(F)(F)F)c2Cl)C3C)nc1 (stereo not drawn)
5.64

# get_value(readout= pIC50, system= P2X7 (Homo sapiens (Human), UniProt Q99572)) for CCc1nc2c(n1-c1ccccc1)CCN(C(=O)c1cccc(Cl)c1Cl)C2
6.66

# get_value(readout= pIC50, system= P2X7 (Homo sapiens (Human), UniProt Q99572)) for CC1c2nn(COCC[Si](C)(C)C)c(-c3ncc(F)cn3)c2CCN1C(=O)c1cccc(C(F)(F)F)c1Cl (stereo not drawn)
5.16

# get_value(readout= pIC50, system= P2X7 (Homo sapiens (Human), UniProt Q99572)) for CC1c2ncn(-c3ccc(F)cc3)c2CCN1C(=O)c1cccc(C(F)(F)F)c1F (stereo not drawn)
6.03

# get_value(readout= pIC50, system= P2X7 (Homo sapiens (Human), UniProt Q99572)) for C[C@H]1Cc2c(nnn2-c2cc(F)ccn2)CN1C(=O)c1cccc(C(F)(F)F)c1Cl (single isomer, unassigned)
8.07

----------
- systemTested: P2X7 (Homo sapiens (Human), UniProt Q99572)
- assayComment: Ca2+ flux (FLIPR) in 1321N1 cells expressing recombinant human P2X7 channel
- Format: cell-based
- conditionContext: 250 μM BzATP
readoutLabel: pIC50
// pIC50 is dimensionless: -log10 of concentration (M)

Returns the measured pIC50 for the input compound. Input: O=C(c1cccc(C(F)(F)F)c1Cl)N1CCc2c(-c3ncccn3)n[nH]c2C1
8.18

Returns the measured pIC50 for the input compound. Input: O=C(c1cccc(C(F)(F)F)c1Cl)N1CCc2c(-c3cncc(F)c3)n[nH]c2C1
6.69

Returns the measured pIC50 for the input compound. Input: Cn1nc(-c2ccc(F)cc2)c2c1CN(C(=O)c1cccc(Cl)c1Cl)CC2
6.60

Returns the measured pIC50 for the input compound. Input: O=C(c1cccc(C(F)(F)F)c1Cl)N1CCc2c(-c3ccc(F)cc3)n[nH]c2C1
8.00

Returns the measured pIC50 for the input compound. Input: CC1c2nnn(-c3cncnc3)c2CCN1C(=O)c1cccc(C(F)(F)F)c1Cl (centres unmarked)
6.64

Returns the measured pIC50 for the input compound. Input: COc1ccccc1-n1nnc2c1CCN(C(=O)c1cccc(C(F)(F)F)c1Cl)C2
6.80

Returns the measured pIC50 for the input compound. Input: CC1c2nnn(-c3ncccn3)c2CCN1C(=O)c1ccc(Cl)cc1F (centres unmarked)
7.33

Returns the measured pIC50 for the input compound. Input: CN(C)CC1c2ncn(-c3ccccn3)c2CCN1C(=O)c1cccc(C(F)(F)F)c1Cl (centres unmarked)
6.81

----------
Kindly state IC50 for each of the entries shown.
- systemTested: P2X7 (Homo sapiens (Human), UniProt Q99572)
- assayComment: Ca2+ flux (FLIPR) in 1321N1 cells expressing recombinant human P2X7 channel;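 also: Calcium-4 dye-loaded cells exposed to compound for 30 min before agonist addition, fluorescence change read 180 s after agonist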
- Format: cell-based
- conditionContext: 250 μM BzATP

Returns the measured IC50 for the input compound. Input: O=C(c1ccnc(Cl)c1Cl)N1CCc2c(-c3ccccc3)n[nH]c2C1 [Example 104]
0.205 µM

Returns the measured IC50 for the input compound. Input: CC1c2ncn(-c3ccc(F)cn3)c2CCN1C(=O)c1ccccc1F (stereo not drawn) [Example 264]
> 10 µM

Returns the measured IC50 for the input compound. Input: CCc1cccnc1-n1nnc2c1CCN(C(=O)c1cccc(C(F)(F)F)c1)C2C (stereo not drawn) [Example 295]
> 10 µM

----------
Kindly state pIC50 for each of the entries shown.
- systemTested: rat P2X7 (Rattus norvegicus (Rat))
- Sequence (Q64663 whole entry): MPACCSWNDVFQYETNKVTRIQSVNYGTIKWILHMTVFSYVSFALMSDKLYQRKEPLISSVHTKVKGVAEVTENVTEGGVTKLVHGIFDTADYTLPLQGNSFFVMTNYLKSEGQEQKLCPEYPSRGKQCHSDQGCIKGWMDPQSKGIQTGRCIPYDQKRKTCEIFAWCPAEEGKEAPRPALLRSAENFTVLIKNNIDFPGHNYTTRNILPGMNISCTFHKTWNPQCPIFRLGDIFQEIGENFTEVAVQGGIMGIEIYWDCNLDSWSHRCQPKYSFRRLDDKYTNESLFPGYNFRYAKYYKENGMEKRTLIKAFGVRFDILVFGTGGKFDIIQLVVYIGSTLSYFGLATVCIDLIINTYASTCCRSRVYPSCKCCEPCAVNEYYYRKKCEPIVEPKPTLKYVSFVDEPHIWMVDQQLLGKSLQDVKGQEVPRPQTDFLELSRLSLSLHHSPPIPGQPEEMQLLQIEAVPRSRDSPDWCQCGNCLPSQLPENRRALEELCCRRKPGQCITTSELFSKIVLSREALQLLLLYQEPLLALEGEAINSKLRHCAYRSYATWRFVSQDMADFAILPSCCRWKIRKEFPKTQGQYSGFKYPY
- assayComment: Ca2+ flux (FLIPR) in 1321N1 cells expressing recombinant rat P2X7 channel;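 also: Calcium-4 dye fluorescence change read 180 s after agonist addition, following 30 min cell preincubation with test compound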
- conditionContext: 250 μM BzATP
pIC50: −log10 of the molar value.

Returns the measured pIC50 for the input compound. Input: COc1ccccc1-n1nnc2c1CCN(C(=O)c1cccc(C(F)(F)F)c1Cl)C2 [Example 125]
5.90

Returns the measured pIC50 for the input compound. Input: CC1c2nn(COCC[Si](C)(C)C)c(-c3ncc(F)cn3)c2CCN1C(=O)c1cccc(C(F)(F)F)c1Cl (stereo not shown) [Example 303]
5.29

Returns the measured pIC50 for the input compound. Input: CC1CN(C(=O)c2cccc(C(F)(F)F)c2Cl)C(C)c2nnn(-c3ccccc3)c21 (stereo not shown) [Example 241]
< 5.00

Returns the measured pIC50 for the input compound. Input: O=C(c1ccc(F)cc1Cl)N1CCc2c(nnn2-c2ccccn2)C1 [Example 117]
< 5.00

Returns the measured pIC50 for the input compound. Input: Cc1cnc(-n2nnc3c2CCN(C(=O)c2cccc(Cl)c2Cl)C3C)c(C)c1 (stereo not shown) [Example 160]
< 5.00

Returns the measured pIC50 for the input compound. Input: Cc1cnc(-n2nnc3c2CCN(C(=O)c2cccc(C(F)(F)F)c2Cl)C3C)c(C)c1 (stereo not shown) [Example 159]
< 5.00

Returns the measured pIC50 for the input compound. Input: CC1c2ncn(-c3ccc(F)cn3)c2CCN1C(=O)c1ccccc1F (stereo not shown) [Example 264]
< 5.00

Returns the measured pIC50 for the input compound. Input: O=C(c1cccc(C(F)(F)F)c1F)N1CCc2c(nnn2-c2ncccn2)C1 [Example 66]
6.69

Returns the measured pIC50 for the input compound. Input: C[C@@H]1c2nnn(-c3cncnc3)c2CCN1C(=O)c1cccc(C(F)(F)F)c1Cl (single isomer, unassigned) [Example 334]
< 5.00

Returns the measured pIC50 for the input compound. Input: C[C@@H]1c2nnn(-c3cccc(F)n3)c2CCN1C(=O)c1cccc(C(F)(F)F)c1Cl (single isomer, unassigned) [Example 146]
< 5.00

----------
- systemTested: UniProt Q99572
- assayComment: P2X7 antagonism in human PBMCs (LPS + Bz-ATP induced IL-1β release, ELISA);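 also: PBMCs from donor human blood, with a further 1.5 h incubation of the cells in the assay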
- Format: cell-based
- conditionContext: compound 10 μM, LPS 30 ng/ml, Bz-ATP 0.5 mM
Exam item: assign Criterion met to entries whose PBMC 10 μM (% control) is below 10 % control and Criterion not met to entries at or above 10 % control. Note that a value of exactly 10 % control receives Criterion not met.

Is the reported PBMC 10 μM (% control) for CC1c2nnn(-c3ncc(F)cn3)c2CCN1C(=O)c1cccc(Cl)c1Cl (centres unmarked) strictly below 10 % control?
Criterion met

Is the reported PBMC 10 μM (% control) for C[C@@H]1Cc2c(nnn2-c2ccc(F)cc2)[C@@H](C)N1C(=O)c1cccc(C(F)(F)F)c1Cl strictly below 10 % control?
Criterion not met

Is the reported PBMC 10 μM (% control) for O=C(c1cccc(C(F)(F)F)c1Cl)N1CCc2c(-c3ccc(F)cn3)n[nH]c2C1 strictly below 10 % control?
Criterion not met

Is the reported PBMC 10 μM (% control) for Cc1ccnc(-n2nnc3c2CCN(C(=O)c2cccc(C(F)(F)F)c2Cl)C3C)n1 (centres unmarked) strictly below 10 % control?
Criterion met

Is the reported PBMC 10 μM (% control) for Cc1c(C(=O)N2Cc3nnn(-c4ncc(F)cn4)c3C[C@@H]2C)cccc1C(F)(F)F (single isomer, unassigned) strictly below 10 % control?
Criterion not met

Is the reported PBMC 10 μM (% control) for CC1c2nnn(-c3cc[nH]n3)c2C=CN1C(=O)c1cccc(C(F)(F)F)c1Cl (centres unmarked) strictly below 10 % control?
Criterion not met

Is the reported PBMC 10 μM (% control) for CC1Cc2c(nnn2-c2ccccc2)C(C)N1C(=O)c1cccc(C(F)(F)F)c1Cl (centres unmarked) strictly below 10 % control?
Criterion met

Is the reported PBMC 10 μM (% control) for C[C@H]1c2ncn(-c3ccccn3)c2CCN1C(=O)c1cccc(C(F)(F)F)c1Cl (single isomer, unassigned) strictly below 10 % control?
Criterion not met

Is the reported PBMC 10 μM (% control) for C[C@@H]1c2ncn(-c3ccccn3)c2CCN1C(=O)c1cccc(Cl)c1Cl (single isomer, unassigned) strictly below 10 % control?
Criterion met

Is the reported PBMC 10 μM (% control) for Cc1cc(C)nc(-n2nnc3c2CCN(C(=O)c2cccc(Cl)c2Cl)C3C)c1 (centres unmarked) strictly below 10 % control?
Criterion met

Is the reported PBMC 10 μM (% control) for C[C@H]1c2nnn(-c3ncc(F)cn3)c2CCN1C(=O)c1cccc(C(F)(F)F)c1Cl (single isomer, unassigned) strictly below 10 % control?
Criterion met
